- Read-out: Macrophage colony-stimulating factor (MCSF), CSF1 (gene 1435)
- assay.summary: BSK_hDFCGF_MCSF: BioMAP Diversity Plus: hDFCGF Assay for Macrophage colony-stimulating factor (MCSF) Biomarker Activity (AID 2283060)
- measurement.setup: primary human foreskin fibroblasts; actives raise or lower the signal
The source made the active and inactive calls. The calls were made as follows: active = hit-call score of the fitted dose curve at least 0.9, where 1 is the maximum; inactive = score below 0.9.
Would you mind answering with one of these outcomes? active, inactive

# fetch the recorded call for Cc1cc2c3c(c1)C(c1ccccc1)=N[C@@H](NC(=O)c1ccncc1)C(=O)N3CC2 here inactive

Same read-out for C=CC(=O)NCNC(=O)C=C ? inactive

Same read-out for Oc1ccc(Cl)cc1Cl ? inactive

Same read-out for CCCCCCCCCc1ccc(O)cc1 ? active

Same read-out for O=S(=O)(O)C(F)(F)C(F)(F)C(F)(F)C(F)(F)C(F)(F)C(F)(F)F ? inactive

Same read-out for Cc1cccc(C)c1N ? inactive

Same read-out for Cc1ccccc1O ? inactive
